# Measurement target: HLA-B*39:01
# Assay method text: IEDB peptide-MHC binding, purified MHC/competitive/fluorescence; filed as Kd, often an IC50 or EC50 that approximates it; bounds were set here for any values at or beyond the usual limits of such assays
# Test settings: source organism: Four Corners hantavirus
Test readout: Kd

The reported Kd of the sequence `PELGAFFAI` was ≥ 20 µM

----------
# Measurement target: HLA-B*58:01
# Assay method text: IEDB peptide-MHC binding, purified MHC/direct/fluorescence; filed as Kd, often an IC50 or EC50 that approximates it; bounds were set here for any values at or beyond the usual limits of such assays
# Test settings: source organism: Influenza A virus (A/South Carolina/1/1918(H1N1))
pKd: −log10 of the molar value.
Test readout: pKd

The reported pKd of the sequence `RLFFKCIYR` was ≤ 4.70

----------
# Measurement target: HLA-A*02:11
# Assay method text: IEDB peptide-MHC binding, purified MHC/competitive/fluorescence; filed as Kd, often an IC50 or EC50 that approximates it; bounds were set here for any values at or beyond the usual limits of such assays
# Test settings: source organism: Burkholderia mallei SAVP1
Test readout: pKd
// scale note: pKd = -log10(conc_M); give the bare number

The reported pKd of the sequence `RLDARLQVL` was 8.96

----------
# Measurement target: HLA-B*15:01
# Assay method text: IEDB peptide-MHC binding, purified MHC/competitive/fluorescence; bounds were set here for any values at or beyond the usual limits of such assays
# Test settings: source organism: Vaccinia virus WR
Test readout: IC50 (µM)
Respond with the bare value in µM.

The reported IC50 of the sequence `CMIRWLGGI` was 30.3

----------
# Measurement target: HLA-B*51:01
# Assay method text: IEDB peptide-MHC binding, purified MHC/direct/fluorescence; filed as Kd, often an IC50 or EC50 that approximates it; bounds were set here for any values at or beyond the usual limits of such assays
# Test settings: source organism: Yellow fever virus 17D
pKd: −log10 of the molar value.
Test readout: pKd

The reported pKd of the sequence `SVAMCRTPF` was ≤ 4.70

----------
# Measurement target: HLA-B*51:01
# Assay method text: IEDB peptide-MHC binding, purified MHC/competitive/radioactivity; filed as Kd, often an IC50 or EC50 that approximates it; bounds were set here for any values at or beyond the usual limits of such assays
# Test settings: source organism: Vaccinia virus WR
pKd: −log10 of the molar value.
Test readout: pKd

The reported pKd of the sequence `VTNLISETLK` was ≤ 4.16

The reported pKd of the sequence `MPNESRVKQW` was ≤ 4.16

The reported pKd of the sequence `NPKASTISWM` was ≤ 4.16

The reported pKd of the sequence `SPMVIATTDM` was ≤ 4.28

The reported pKd of the sequence `VPDADPPIPY` was ≤ 4.16

The reported pKd of the sequence `SPMLYQLLEA` was ≤ 4.16

The reported pKd of the sequence `RPDTRHLRVL` was ≤ 4.16

----------
# Measurement target: HLA-B*15:01
# Assay method text: IEDB peptide-MHC binding, purified MHC/direct/fluorescence; filed as Kd, often an IC50 or EC50 that approximates it; bounds were set here for any values at or beyond the usual limits of such assays
# Test settings: source organism: La Crosse virus
Test readout: pKd
// scale note: pKd = -log10(conc_M); give the bare number

Value sought: pKd, system HLA-B*15:01, item `YRKPSGGVF` . Result: 6.10
